MEASURED_TARGET: T1, recombinant gp120 of HIV-1 strain IIIb (HIV-1 strain IIIb, UniProt P04578 33-511)
T1 construct: domain: gp120; also called IIIb-derived gp120; gp 120 (IIIB strain)
ASSAY_REMARKS: SPR BIAcore, gp120 on chip
MEASURE_NAME: Fold Increase of Mutant Kd Compared to MT4 Kd
Report as: number unit

// known answers, use as guide
# BINDER, RESULT
measured = [
    ("Fab M556-16 (Fab, V domains shown) VH: LEQSGAEVKKPGASVKVSCQASGYRFSNFTVHWVRQAPGQRFEWMGWINPYNGNKEFSAKFQDRVTFTADTSANTAYMELRSLRSADTAVYYCARVGEWGWDQVRYDNYYMDVWGKGTTVIVSS VL: ELTQSPGTLSLSPGERATFSCRSSHSIRSRRVAWYQHKPGQAPRLVIHGVSNRASGISDRFSGSGSGTDFTLTITRVEPEDFALYYCQVYGASSYTFGQGTKLERKR", "45.3 fold"),
    ("Fab M556-10 (Fab, V domains shown) VH: LEQSGAEVKKPGASVKVSCQASGYRFSNFTVHWVRQAPGQRFEWMGWINPYNGNKEFSAKFQDRVTFTADTSANTAYMELRSLRSADTAVYYCARVGEWGWHQRRYDNYYMDVWGKGTTVIVSS VL: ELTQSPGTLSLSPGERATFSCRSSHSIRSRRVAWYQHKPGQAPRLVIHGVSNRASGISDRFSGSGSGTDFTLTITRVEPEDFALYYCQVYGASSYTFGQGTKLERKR", "69.5 fold"),
]

We now examine a further binder.
Query: Entry Fab M556-15 (Fab, V domains shown) VH: LEQSGAEVKKPGASVKVSCQASGYRFSNFTVHWVRQAPGQRFEWMGWINPYNGNKEFSAKFQDRVTFTADTSANTAYMELRSLRSADTAVYYCARVGEWGWTQRRFDNYYMDVWGKGTTVIVSS VL: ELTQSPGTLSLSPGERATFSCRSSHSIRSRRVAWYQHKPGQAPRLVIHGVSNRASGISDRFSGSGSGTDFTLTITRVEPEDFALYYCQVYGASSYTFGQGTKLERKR : reported Fold Increase of Mutant Kd Compared to MT4 Kd = ?
Response: 36.2 fold
